# measured_target: T1, human MSLN-R1-his protein (human, UniProt Q13421 296-390)
# T1 construct: Region 1 of human mesothelin, made in HEK293E cells, His-tagged; also called human MSLN-R1 protein; hMSLN-R1-his; not shown: His tag
# T1 chain: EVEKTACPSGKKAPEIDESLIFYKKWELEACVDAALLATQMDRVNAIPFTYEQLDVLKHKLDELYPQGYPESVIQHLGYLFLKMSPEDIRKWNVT
# assay_protocol: ELISA on coated MSLN-R1; no antibody (blank)
property: OD450

S009-F8-36.12 (antibody, human IgG1, kappa, V domains shown) VH: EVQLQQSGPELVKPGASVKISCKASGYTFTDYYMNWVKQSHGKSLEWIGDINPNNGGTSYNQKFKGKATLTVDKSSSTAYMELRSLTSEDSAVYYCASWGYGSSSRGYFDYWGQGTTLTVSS VL: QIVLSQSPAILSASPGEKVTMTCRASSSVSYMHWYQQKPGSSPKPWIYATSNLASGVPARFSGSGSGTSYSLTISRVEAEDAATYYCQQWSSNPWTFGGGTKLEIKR: 0.03 OD450
S009-F8-7.5 (antibody, human IgG1, kappa, V domains shown) VH: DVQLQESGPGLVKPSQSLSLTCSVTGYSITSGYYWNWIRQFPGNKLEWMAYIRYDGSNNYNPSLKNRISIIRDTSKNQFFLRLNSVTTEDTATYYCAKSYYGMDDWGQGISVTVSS VL: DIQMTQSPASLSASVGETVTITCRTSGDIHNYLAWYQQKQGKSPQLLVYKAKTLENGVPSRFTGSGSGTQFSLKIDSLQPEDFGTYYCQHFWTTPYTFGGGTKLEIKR: 0.05 OD450
S009-F8-33.12 (antibody, human IgG1, kappa, V domains shown) VH: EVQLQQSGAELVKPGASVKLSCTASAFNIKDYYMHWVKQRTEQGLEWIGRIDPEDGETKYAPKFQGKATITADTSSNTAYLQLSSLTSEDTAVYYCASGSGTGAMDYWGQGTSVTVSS VL: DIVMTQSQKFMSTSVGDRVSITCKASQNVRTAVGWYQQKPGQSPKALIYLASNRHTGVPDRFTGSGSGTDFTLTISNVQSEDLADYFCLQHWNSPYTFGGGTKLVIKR: 0.04 OD450
S009-F8-13.8 (antibody, human IgG1, kappa, V domains shown) VH: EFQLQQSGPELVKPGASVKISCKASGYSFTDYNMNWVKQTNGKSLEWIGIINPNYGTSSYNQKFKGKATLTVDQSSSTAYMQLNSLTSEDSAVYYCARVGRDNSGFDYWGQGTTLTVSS VL: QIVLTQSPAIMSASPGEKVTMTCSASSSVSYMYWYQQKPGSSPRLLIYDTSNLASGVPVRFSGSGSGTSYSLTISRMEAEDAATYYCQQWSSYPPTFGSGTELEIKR: 0.05 OD450
S009-F8-19.21 (antibody, human IgG1, kappa, V domains shown) VH: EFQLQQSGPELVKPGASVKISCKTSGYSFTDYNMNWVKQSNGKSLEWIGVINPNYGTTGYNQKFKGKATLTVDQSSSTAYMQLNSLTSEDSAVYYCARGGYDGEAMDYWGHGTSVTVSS VL: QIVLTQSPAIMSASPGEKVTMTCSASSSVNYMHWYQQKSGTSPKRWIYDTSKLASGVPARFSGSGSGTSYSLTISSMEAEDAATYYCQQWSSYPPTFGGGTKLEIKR: 0.05 OD450
